# target or system: T1, IL10Rα/IL2Rγ receptor (human) (UniProt Q13651)
# T1 sequence (looked up) 1: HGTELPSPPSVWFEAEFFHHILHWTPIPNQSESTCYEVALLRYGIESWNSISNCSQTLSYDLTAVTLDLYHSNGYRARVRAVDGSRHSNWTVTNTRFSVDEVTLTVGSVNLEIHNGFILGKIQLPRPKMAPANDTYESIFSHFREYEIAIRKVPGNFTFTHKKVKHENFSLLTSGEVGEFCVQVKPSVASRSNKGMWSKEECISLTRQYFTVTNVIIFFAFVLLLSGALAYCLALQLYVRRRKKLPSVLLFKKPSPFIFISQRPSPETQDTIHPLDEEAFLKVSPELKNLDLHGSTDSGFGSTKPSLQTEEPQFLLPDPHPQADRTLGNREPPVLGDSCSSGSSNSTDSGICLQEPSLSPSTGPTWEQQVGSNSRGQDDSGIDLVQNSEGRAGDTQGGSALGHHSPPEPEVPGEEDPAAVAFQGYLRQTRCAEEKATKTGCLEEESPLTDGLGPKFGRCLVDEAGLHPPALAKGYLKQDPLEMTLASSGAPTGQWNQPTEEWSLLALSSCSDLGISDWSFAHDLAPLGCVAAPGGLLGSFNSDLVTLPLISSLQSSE
# T1 sequence (looked up) 2: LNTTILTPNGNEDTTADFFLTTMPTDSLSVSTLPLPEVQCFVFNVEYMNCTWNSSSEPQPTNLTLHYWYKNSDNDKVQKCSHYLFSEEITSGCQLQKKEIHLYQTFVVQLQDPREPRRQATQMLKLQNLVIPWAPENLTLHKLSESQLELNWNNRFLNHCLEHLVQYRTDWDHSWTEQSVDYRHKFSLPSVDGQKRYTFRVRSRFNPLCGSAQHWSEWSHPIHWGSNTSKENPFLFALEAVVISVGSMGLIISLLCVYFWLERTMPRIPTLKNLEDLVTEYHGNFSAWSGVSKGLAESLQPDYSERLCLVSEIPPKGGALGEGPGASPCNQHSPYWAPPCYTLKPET
# assay text: cell-based or functional assay
So I've got a bunch of binders here, and I need their IFNγ secretion, CD8 T cells, at 0.1 µM values.
Answer in pg/mL, number only, no unit symbol.

Ask | Field request: IFNγ secretion, CD8 T cells, at 0.1 µM | item: hIL10Ra_VHH14 - hIL2Rg_VHH19, linker GGSGGS, tag his (bispecific antibody, not shown: small tags and cut ends) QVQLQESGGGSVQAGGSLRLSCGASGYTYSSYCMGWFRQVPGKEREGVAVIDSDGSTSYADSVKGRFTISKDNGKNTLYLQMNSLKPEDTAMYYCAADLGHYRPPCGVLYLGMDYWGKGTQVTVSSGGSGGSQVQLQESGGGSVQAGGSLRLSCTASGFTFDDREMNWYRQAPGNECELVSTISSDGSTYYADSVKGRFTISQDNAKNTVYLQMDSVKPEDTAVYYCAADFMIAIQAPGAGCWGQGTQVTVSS
Reply | 122000

Ask | Would you mind doing hIL10Ra_VHH14 - hIL2Rg_VHH19, linker GS, tag his (bispecific antibody, not shown: small tags and cut ends) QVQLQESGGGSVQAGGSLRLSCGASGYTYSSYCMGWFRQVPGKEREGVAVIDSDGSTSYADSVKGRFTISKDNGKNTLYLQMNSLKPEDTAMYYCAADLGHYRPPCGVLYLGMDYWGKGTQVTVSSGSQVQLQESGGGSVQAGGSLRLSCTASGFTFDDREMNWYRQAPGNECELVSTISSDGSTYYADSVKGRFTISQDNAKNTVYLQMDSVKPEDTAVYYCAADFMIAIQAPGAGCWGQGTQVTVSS as well?
Reply | 129000

Ask | Would you mind doing hIL10Ra_VHH14 - hIL2Rg_VHH19, linker GGGS, tag his (bispecific antibody, not shown: small tags and cut ends) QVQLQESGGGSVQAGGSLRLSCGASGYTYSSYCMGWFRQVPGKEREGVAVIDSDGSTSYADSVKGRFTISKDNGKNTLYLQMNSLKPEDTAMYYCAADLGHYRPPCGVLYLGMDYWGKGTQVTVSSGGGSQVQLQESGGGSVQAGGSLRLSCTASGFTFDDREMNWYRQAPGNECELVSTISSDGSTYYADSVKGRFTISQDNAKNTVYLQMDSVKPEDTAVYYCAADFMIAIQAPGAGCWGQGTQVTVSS as well?
Reply | 114000

Ask | Would you mind doing hIL10Ra_VHH14 - hIL2Rg_VHH19, linker GGGS, tag Fc (bispecific antibody, not shown: a dimerising Fc or GST) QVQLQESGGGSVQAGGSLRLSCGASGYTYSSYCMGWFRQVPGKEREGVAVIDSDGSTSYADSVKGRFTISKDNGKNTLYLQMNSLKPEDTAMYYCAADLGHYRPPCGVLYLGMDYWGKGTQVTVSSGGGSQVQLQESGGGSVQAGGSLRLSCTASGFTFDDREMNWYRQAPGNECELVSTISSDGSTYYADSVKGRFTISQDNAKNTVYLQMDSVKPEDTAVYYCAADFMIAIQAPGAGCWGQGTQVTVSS as well?
Reply | 144000

Ask | Would you mind doing hIL10Ra_VHH14 - hIL2Rg_VHH19, linker …, tag his (bispecific antibody, not shown: small tags and cut ends) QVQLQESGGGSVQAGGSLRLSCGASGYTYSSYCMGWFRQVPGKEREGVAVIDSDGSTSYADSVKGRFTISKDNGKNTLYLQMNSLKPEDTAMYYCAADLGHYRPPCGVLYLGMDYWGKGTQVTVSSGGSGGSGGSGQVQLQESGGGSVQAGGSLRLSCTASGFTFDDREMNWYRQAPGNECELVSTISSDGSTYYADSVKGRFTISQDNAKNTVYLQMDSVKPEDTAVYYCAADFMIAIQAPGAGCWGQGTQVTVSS as well?
Reply | 130000

Ask | Would you mind doing hIL10Ra_VHH14 - hIL2Rg_VHH19, linker GGGSGGGS, tag his (bispecific antibody, not shown: small tags and cut ends) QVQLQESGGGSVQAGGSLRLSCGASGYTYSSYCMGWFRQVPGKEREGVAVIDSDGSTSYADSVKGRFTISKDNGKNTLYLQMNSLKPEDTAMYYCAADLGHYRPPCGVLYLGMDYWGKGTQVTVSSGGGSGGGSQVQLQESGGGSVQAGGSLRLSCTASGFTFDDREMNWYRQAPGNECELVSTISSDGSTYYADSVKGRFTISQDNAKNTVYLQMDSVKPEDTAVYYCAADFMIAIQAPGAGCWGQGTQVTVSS as well?
Reply | 122000
